Entries and their MLM 100000 % REM. values follow.
- Protocol: MLM metabolic stability (% remaining)
- Condition set: 100000 (unit not given)

Smiles data: CCN(CC)C(=O)c1ccc(N(c2cccc(O)c2)C2CCN(Cc3ccoc3)CC2)cc1
MLM 100000 % REM. / %: 83.5
//
Smiles data: CCN(CC)C(=O)c1ccc(N(c2cccc(O)c2)C2CCN(Cc3cccc(F)c3)CC2)cc1
MLM 100000 % REM. / %: 71.5
//
Smiles data: CCN(CC)C(=O)c1ccc(N(c2cc(O)ccc2F)C2CCN(Cc3ccccc3)CC2)cc1
MLM 100000 % REM. / %: 69
//
Smiles data: CCN(CC)C(=O)c1ccc(N(c2cccc(O)c2)C2CCN(Cc3ccco3)CC2)cc1
MLM 100000 % REM. / %: 65
//
Smiles data: CCN(CC)C(=O)c1ccc(N(c2cccc(O)c2)C2CCN(Cc3ccc(I)cc3)CC2)cc1
MLM 100000 % REM. / %: 61.667
//
Smiles data: CCN(CC)C(=O)c1ccc(N(c2cccc(O)c2)C2CCN(Cc3ccccc3F)CC2)cc1
MLM 100000 % REM. / %: 71
//
Smiles data: CCN(CC)C(=O)c1ccc(N(c2cccc(O)c2)C2CCN(Cc3ccccn3)CC2)cc1
MLM 100000 % REM. / %: 82

Hey, just so you know, these numbers are from patent US6875777B2.
